Biological target: Recombinant Cx43CT (carboxyl terminal domain of connexin43, sequence 255-382 of rCx43 preceded by GPLG) (rat, UniProt P08050)
Sequence (P08050 other isoform, or with tags, fused parts or gaps limits assumed): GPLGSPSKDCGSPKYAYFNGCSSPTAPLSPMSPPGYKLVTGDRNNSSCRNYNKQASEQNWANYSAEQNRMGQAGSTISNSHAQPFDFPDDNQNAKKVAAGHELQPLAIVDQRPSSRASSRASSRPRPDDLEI
Experiment: SPR, Cx43CT immobilised, peptide at 1 mM, response normalised on Mw
Entries annotated with measured SPR normalised on Mw at 1 mM

Fill in the blank: the reported SPR normalised on Mw at 1 mM of Ac-RRNYSAVPFYSHSRRNY-NH2 [Compound 2506] is ____. 53 (SPRrespons*100)/Mw

// lookup SPR normalised on Mw at 1 mM for Ac-YNRRGGGSAVPFYSHSYNRR-NH2 [Compound 2496] 58.8 (SPRrespons*100)/Mw

Look up SPR normalised on Mw at 1 mM for this binder: Ac-RRNYVPRRNY-NH2 [Compound 2512] 27.5 (SPRrespons*100)/Mw

Given Ac-YNRR-NH2 [Compound 2499] , state its recorded SPR normalised on Mw at 1 mM. 10.7 (SPRrespons*100)/Mw

Recorded SPR normalised on Mw at 1 mM for Ac-RRNY-NH2 [Compound 2498] , please? 14 (SPRrespons*100)/Mw

Could you tell me which SPR normalised on Mw at 1 mM is on file for Ac-RRNYAVPFRRNY-NH2 [Compound 2511] ? 41.9 (SPRrespons*100)/Mw

Look up SPR normalised on Mw at 1 mM for this binder: Ac-RRNYRRNY-NH2 [Compound 2497] 45.7 (SPRrespons*100)/Mw
